# System: A. fumigatus IFM 40808
Endpoint name: MIC

Example results:
{"columns": ["Molecule", "Endpoint name", "Measurement"],
 "data": [
  ["COCCS(=O)(=O)C(F)(F)C(O)(Cn1cncn1)c1ccc(F)cc1F (centres unmarked) [Example 21]", "MIC", "16 µg/mL"],
  ["OCCSC(F)(F)C(O)(Cn1cncn1)c1ccc(F)cc1F (centres unmarked) [Example 18]", "MIC", "64 µg/mL"]
]}

Hi team, please reply with MIC for each item in this list.
1. OC(Cn1cncn1)(Cn1cncn1)c1ccc(F)cc1F [Fluconazole, reference compound]
2. COCCSC(F)(F)C(O)(Cn1cncn1)c1ccc(F)cc1F (centres unmarked) [Example 15]
3. CC(=O)OCCSC(F)(F)C(O)(Cn1cncn1)c1ccc(F)cc1F (centres unmarked) [Example 14]

Given back:
> 128 µg/mL
4 µg/mL
8 µg/mL
